tested on: Yellow nutsedge; assay: Pre-emergence herbicide test; assay type: in vivo; settings: Cyperus, 11.21 kg/ha, read-out: % plant inhibition (Yens)
Hi, to clarify the labels: met covers inhibition at 11210 g/ha from 20% upward, not met covers anything below 20%.

* Cn1nc(-c2cc(N3CCOCC3)c(Cl)cc2F)c(Cl)c1C(F)(F)F [Compound 99] | met
* Cn1nc(C(F)(F)F)c(Cl)c1-c1cc(F)c([N+](=O)[O-])cc1F [Compound 70] | not met
* C#CCOc1cc(-c2nn(C)c(C(F)(F)Cl)c2Cl)c(F)cc1Cl [Compound 303] | not met
* Cn1nc(-c2cc(Oc3ccc(C(F)(F)F)cc3Cl)c(Cl)cc2F)c(Cl)c1C(F)(F)F [Compound 203] | not met
* CCS(=O)(=O)N(c1cc(-c2nn(C)c(C(F)(F)F)c2Cl)c(Cl)cc1Cl)S(=O)(=O)CC [Compound 90] | not met
* Cn1nc(-c2cc([N+](=O)[O-])c(Cl)cc2Cl)c(Cl)c1C(F)(F)F [Compound 86] | not met
* Cn1nc(-c2cc(NC(=O)C3(Br)CC3)c(Cl)cc2F)c(Cl)c1C(F)(F)F [Compound 500] | not met
* Cn1nc(-c2cc(CC(N)=O)c(Cl)cc2F)c(Cl)c1C(F)(F)F [Compound 112] | met
* Cn1nc(-c2ccc([N+](=O)[O-])cc2)c(Cl)c1C(F)(F)F [Compound 81] | not met
* COc1cc(F)c(-c2c(Cl)c(C(F)(F)F)nn2C)cc1F [Compound 71] | not met
* Cn1nc(-c2cc(Oc3ccc(C(F)(F)F)cc3)c(Cl)cc2F)c(Cl)c1C(F)(F)F [Compound 205] | not met
* Cn1nc(-c2cc(CC(=O)O)c(Cl)cc2F)c(Cl)c1C(F)(F)F [Compound 111] | met
* Cn1nc(-c2cc(F)c(Cl)cc2Cl)c(Cl)c1C(F)(F)F [Compound 84] | met
* COc1cc(-c2c(Cl)c(C(F)(F)F)nn2C)c(F)cc1[N+](=O)[O-] [Compound 72] | not met
* Cn1nc(-c2cc(NC(=O)C(F)(F)F)c(Cl)cc2Cl)c(Cl)c1C(F)(F)F [Compound 88] | not met
* Cn1nc(C(F)(F)F)c(Cl)c1-c1cc([N+](=O)[O-])c(F)cc1F [Compound 77] | not met
